Target: T1, monkey GPC3-His protein (monkey)
T1 construct: Bought recombinant protein; also called monkey GPC3 protein
Assay: ELISA, monkey GPC3-His coated;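 also: Plate-coated antigen at 1 µg/mL, antibody binding 2 h at 37 °C, detected with HRP-labeled secondary antibody and TMB, absorbance at 450 nm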
testReadout: OD450 at 0.01 nM (OD450)
Lab book: enter the figure in OD450, no units written.

[
  {
    "binder": "F1.136.7 (antibody, human IgG1, kappa, V domains shown, Human-murine chimeric antibody) VH: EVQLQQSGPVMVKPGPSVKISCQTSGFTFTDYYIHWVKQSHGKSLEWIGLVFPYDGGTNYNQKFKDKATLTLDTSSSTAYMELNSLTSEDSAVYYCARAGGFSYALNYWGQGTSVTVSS VL: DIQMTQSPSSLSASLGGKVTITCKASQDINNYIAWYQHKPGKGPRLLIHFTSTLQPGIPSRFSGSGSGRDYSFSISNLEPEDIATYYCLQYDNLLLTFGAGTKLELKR",
    "OD450 at 0.01 nM [OD450]": 0.1
  }
]

Pending binder:
Task: State the recorded OD450 at 0.01 nM for this entry: F1.9.19 (antibody, human IgG1, kappa, V domains shown, Human-murine chimeric antibody) VH: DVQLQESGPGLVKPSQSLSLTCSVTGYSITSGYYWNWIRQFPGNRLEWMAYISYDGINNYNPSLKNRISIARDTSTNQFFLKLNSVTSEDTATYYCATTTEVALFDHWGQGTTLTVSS VL: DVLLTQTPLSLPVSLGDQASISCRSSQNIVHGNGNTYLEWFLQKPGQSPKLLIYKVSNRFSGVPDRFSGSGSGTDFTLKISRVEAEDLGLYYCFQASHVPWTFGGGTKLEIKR
Output: 0.3
